# System: SK-OV-3
# measurement-protocol: NCI tumour cell line growth inhibition, 48 h
The source made the active and inactive calls. Cut-off read from the data, not from the text of the source: active = GI50 up to about 1.1 µM and inactive = higher.
assay-endpoint: GI50

Query :: Identify the measured GI50 of NC1c2c(Br)sc(N3CCCC3)c2C(=O)C1O (stereo unspecified) for SK-OV-3.
Result :: > 50 µM (inactive)

Query :: Enter reported GI50 observed with SK-OV-3 for CC(C)[Si]1(C(C)C)OCC2OC3(CO)C(Oc4nc(=O)ccn43)C2O[Si](C(C)C)(C(C)C)O1 (stereo unspecified)
Result :: 20 µM (inactive)

Query :: Any idea what GI50 came out for O=C1c2ccccc2C2(c3ccc(Cl)cc3)NCc3ccccc3CN12 (stereo unspecified) on SK-OV-3?
Result :: 31.2 µM (inactive)

Query :: Give recorded GI50 with SK-OV-3 for the following molecule: `CC1(C)C=Cc2c(cc3oc4ccc5c(c4c(=O)c3c2O)C=CC(C)(C)O5)O1`
Result :: > 100 µM (inactive)

Query :: Which measured GI50 belongs to `C/C(=N\Nc1nc2ccccc2[nH]1)c1ccc2ccccc2n1` , tested on SK-OV-3?
Result :: 8.87 µM (inactive)

Query :: Field: GI50 (SK-OV-3). Entry: `O=C(NNC(=O)c1ccncc1)c1ccncc1`
Result :: > 100 µM (inactive)

* * *

# Tested on: IGROV-1
# measurement-protocol: NCI tumour cell line growth inhibition, 48 h
Activity calls are given as the source filed them. Cut-off read from the data, not from the text of the source: active = GI50 up to about 1.1 µM and inactive = higher.
assay-endpoint: GI50

Query :: Dear colleague, I am looking for the recorded GI50 of the following compound: C/C1=C\CC[C@@]2(C)O[C@@H]2[C@H]2OC(=O)C(C)C2C[C@H]1O (stereo not given in full)
Result :: > 100 µM (inactive)

Query :: Quick one: GI50 for `O=CC[C@H]1CCc2ccccc2C12CCC(=O)CC2` ?
Result :: > 100 µM (inactive)

Query :: Which measured GI50 value corresponds to `COc1ncc(/C=C2\OC(=O)c3ccccc32)c(OC)n1` ?
Result :: 4.48 µM (inactive)

Query :: Consider the compound CCNCC(O)c1ccc(N)c([N+](=O)[O-])c1 (stereo not given) and give its measured GI50.
Result :: > 100 µM (inactive)

Query :: Look up GI50: CC(C)(C)OC(=O)C1=C(O)C(C(=O)OC(C)(C)C)C23CCCCC12C(C(=O)OC(C)(C)C)C(O)=C3C(=O)OC(C)(C)C (stereo not given)
Result :: > 100 µM (inactive)

* * *

# System: SW-620
# measurement-protocol: NCI tumour cell line growth inhibition, 48 h
Activity calls are given as the source filed them. Rule as the data show it: active = GI50 up to about 1.1 µM and inactive = higher.
assay-endpoint: GI50

Query :: Fill in: GI50 of Cc1ccc(NCC2(/N=C/c3ccccc3)OC(CO)C(O)C2O)cc1 (stereo unspecified) is ___
Result :: 36.7 µM (inactive)

Query :: So what does the record say about GI50 for COc1c2c(nc3ccccc13)-c1cc(C(CC(=O)OC(C)(C)C)C(=O)OC(C)C)c(CO)c(=O)n1C2 (stereo unspecified) ?
Result :: > 96.6 µM (inactive)

Query :: What measured GI50 goes with `CP(C)(=S)P(C)(C)=S` ?
Result :: > 100 µM (inactive)

Query :: Record request: GI50 value, item Cc1ccccc1NC(=O)C(=O)C(C#N)c1ccccc1C (stereo unspecified)
Result :: 19.5 µM (inactive)

Query :: Requested field: GI50. Item: `O=[N+]([O-])c1cccc2nccc(NCCN3CCOCC3)c12`
Result :: 8.91 µM (inactive)

Query :: Bench note: what GI50 did COC1C(=O)CCC2(CO2)C1(O)C1(C)OC1CC=C(C)C (stereo unspecified) show?
Result :: 18.4 µM (inactive)
